- target.under.test: T1, human PCSK9 (PCSK9 antigen, SEQ ID NO. 53) (human, UniProt A8T644 31-152; Q8NBP7 153-692, Biotin-labelled on amines in the MSD-SET and sorting experiments; positions not given.)
- T1 construct: Biotin-labelled in MSD-SET; also called PCSK9-WT; PCSK9 protein
- assay.notes: flow cytometry, PCSK9 left on CHO-LDLR cells (anti-His-FITC) after premix with 1 nM antibody
Measured Fluorescence Signal Value by item
Kindly provide the number alone.

A selection of reference data follows.
[
  {
    "binder": "ADI-10086 (antibody, human IgG2, kappa, V domains shown, IgG) VH: QLQLQESGPGLVKPSETLSLTCTVSGGSIRSSAYYWGWIRQPPGKGLEWIGSINYRGSTYYNPSLKSRVTISVDTSKNQFSLKLSSVTAADTAVYYCARENSGVVPAAGPNWFGPWGQGTLVTVSS VL: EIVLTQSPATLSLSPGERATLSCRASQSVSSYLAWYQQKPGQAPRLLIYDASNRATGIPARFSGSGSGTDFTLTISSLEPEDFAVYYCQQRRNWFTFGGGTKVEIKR",
    "reported.value": 6920
  },
  {
    "binder": "Evolocumab (antibody, V domains shown) VH: QVQLVQSGAEVKKPGASVKVSCKASGYTLTSYGISWVRQAPGQGLEWMGWVSFYNGNTNYAQKLQGRGTMTTDPSTSTAYMELRSLRSDDTAVYYCARGYGMDVWGQGTTVTVSS VL: QSALTQPASVSGSPGQSITISCTGTSSDVGGYNSVSWYQQHPGKAPKLMIYEVSNRPSGVSNRFSGSKSGNTASLTISGLQAEDEADYYCNSYTSTSMVFGGGTKLTVL",
    "reported.value": 6810
  }
]

Now let's try a different one.
Query: Suppose we examine the binder ADI-10087 (antibody, human IgG2, kappa, V domains shown, also called anti-PCSK antibody of the invention) VH: QLQLQESGPGLVKPSETLSLTCTVSGGSISSASYYWSWIRQPPGKGLEWIGSINYRGSTYYNPSLKSRVTISVDTSKNQFSLKLSSVTAADTAVYYCARENSGVVPAAGPNWFGPWGQGTLVTVSS VL: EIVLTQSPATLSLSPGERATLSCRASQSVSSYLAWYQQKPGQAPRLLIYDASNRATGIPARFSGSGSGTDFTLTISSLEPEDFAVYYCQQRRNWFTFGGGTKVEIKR ; what Fluorescence Signal Value value has been reported?
Reply: 6480
